The reported numbers originate from PubChem BioAssay (NCI).

# test: NCI Yeast Anticancer Drug Screen. Data for the mec2-1 strain (AID 157)
# run-parameters: S. cerevisiae mec2-1 strain, at 50.0 µM, hits give high values
About 79,000 compounds went through this panel and 15% of them were active in at least one assay; those are over-represented in the sample as a whole.
Binary classification by growth inhibition, with 60% as an inclusive lower bound for MET; all other cases are NOT MET.

INSERT INTO measurements (molecule, group_label) VALUES
  ('CCN(C(=O)C(F)(F)F)c1ccc2c(c1)C(=O)c1ccccc1-2', 'NOT MET'),
  ('O=C(c1ccccc1)C1Cc2ccccc2C1=O (configuration not stated)', 'NOT MET'),
  ('O=[N+]([O-])c1ccccc1SCc1ccccc1', 'NOT MET'),
  ('COC1/C=C\C=C(/C)C(=O)NC2=CC(=O)C(N)=C(CC(C)CC(OC)C(O)C(C)C=C(C)C1OC(N)=O)C2=O (configuration not stated)', 'MET'),
  ('O=C(c1ccccc1)C(Br)CCCC(Br)C(=O)c1ccccc1 (configuration not stated)', 'MET'),
  ('Nc1c(C(=O)O)cccc1[N+](=O)[O-]', 'NOT MET'),
  ('CCCCCC(/C=N/Nc1nc(C)cc(=O)[nH]1)=C\c1ccccc1', 'NOT MET'),
  ('CCN(CCCOc1ccccc1)CCN(CC)CCCOc1ccccc1', 'NOT MET'),
  ('O=C(N/C(=C\c1ccc(Br)cc1)c1nc2ccccc2[nH]1)c1ccccc1', 'MET'),
  ('COC(=O)NC1CCCCCCCCCCC1I (configuration not stated)', 'MET'),
  ('Cn1c2nc(-[n+]3ccc(-c4ccccc4)cc3)nc-2c([O-])n(C)c1=O', 'NOT MET'),
  ('CCS(=O)(=O)c1ccc(NC(=O)OC2CCCCCCC2)cc1', 'MET'),
  ('Cc1c(-c2ccc(C(=N)N)cc2)oc(-c2ccc(C(=N)N)cc2)c1C', 'MET'),
  ('O=S(=O)(O)c1ccc2c(c1)C1C(C3C2C2(Cl)C(Cl)=C(Cl)C3(Cl)C2(Cl)Cl)C2(Cl)C(Cl)=C(Cl)C1(Cl)C2(Cl)Cl (configuration not stated)', 'MET'),
  ('Nc1cccc2c1C(=O)c1cccc(Cl)c1C2=O', 'NOT MET'),
  ('N#C/C(=C/c1ccccc1B(O)O)C(=O)O', 'NOT MET'),
  ('C=CCOC(=O)C(O)C(CC)CCCCC (configuration not stated)', 'NOT MET'),
  ('O=C(Nc1cccc(Cl)c1)Oc1c(Br)cc(Br)cc1Br', 'MET'),
  ('O=C1C/C(=C\c2ccccc2)C(=O)c2ccccc2N1', 'NOT MET'),
  ('CC1(C)S[C@@H]2[C@H](N3C(=O)c4ccccc4C3=O)CN2[C@H]1NC(=O)N[C@@H]1N2C[C@@H](N3C(=O)c4ccccc4C3=O)[C@H]2SC1(C)C', 'MET'),
  ('Clc1ccc2nc3c(c(N4CCCCC4)c2c1)CCCC3', 'MET');
